assay: Volume of distribution at steady state in dog at 0.4 mg/kg, iv and 0.2 mg/kg, po; type: ADME, organism-based, Canis lupus familiaris; conditions: in vivo, read-out: Vdss
We label by threshold. Values of Vd strictly beneath 6 L/kg are Yes. Values of 6 L/kg and up are No.

Problem: Hello, I'm reviewing records and need to know if Vd of CNCc1ccccc1-c1ccc(N2CCc3c(C(N)=O)nn(-c4ccc(OC)cc4)c3C2=O)cc1 is below 6 L/kg. Could you check?
Result: No

Problem: Hello, I'm reviewing records and need to know if Vd of COc1ccc(-n2nc(C(N)=O)c3c2C(=O)N(c2ccc(-c4ccccc4CN4CCC(O)CC4)cc2)CC3)cc1 is below 6 L/kg. Could you check?
Result: Yes

Problem: Hello, I'm reviewing records and need to know if Vd of COc1ccc(-n2nc(C(N)=O)c3c2C(=O)N(c2ccc(-c4ccccc4CN(CCO)CCO)cc2)CC3)cc1 is below 6 L/kg. Could you check?
Result: Yes

Problem: Hello, I'm reviewing records and need to know if Vd of COc1ccc(-n2nc(C(N)=O)c3c2C(=O)N(c2ccc(-c4ccccc4CN4CCCC4)cc2)CC3)cc1 is below 6 L/kg. Could you check?
Result: Yes

Problem: Hello, I'm reviewing records and need to know if Vd of CN(C)Cc1nccn1-c1ccc(NC(=O)c2cc(C(F)(F)F)nn2-c2ccc3onc(N)c3c2)c(F)c1 is below 6 L/kg. Could you check?
Result: Yes

---

I'd be grateful if you could share measured Vd for these entries.
assay: Volume of distribution at steady state in dog at 0.4 mg/kg, iv and 0.2 mg/kg, po; type: ADME, organism-based, Canis lupus familiaris; conditions: in vivo, read-out: Vdss
Enter your answer as a number in L/kg; do not include the unit.

Problem: What does the record list as Vd for COc1ccc(-n2nc(C(N)=O)c3c2C(=O)N(c2ccc(-c4ccccc4CN(C)C)cc2)CC3)cc1 ?
Result: 6.1

Problem: What does the record list as Vd for COc1ccc(-n2nc(Cn3ccnn3)c3c2C(=O)N(c2ccc(-c4ccccc4CN4CC[C@@H](O)C4)cc2)CC3)cc1 ?
Result: 4.9

Problem: What does the record list as Vd for CCN(CC)Cc1ccccc1-c1ccc(N2CCc3c(C(N)=O)nn(-c4ccc(OC)cc4)c3C2=O)cc1 ?
Result: 6.5

Problem: What does the record list as Vd for COc1ccc(-n2nc(C(N)=O)c3c2C(=O)N(c2ccc(N4CCCCC4=O)cc2)CC3)cc1 ?
Result: 0.2

---

I'd be grateful if you could share measured pKi for these entries.
biological target: Coagulation factor X (Oryctolagus cuniculus); test: Binding affinity to rabbit F10a
Sequence (O19045 41-180 limits assumed): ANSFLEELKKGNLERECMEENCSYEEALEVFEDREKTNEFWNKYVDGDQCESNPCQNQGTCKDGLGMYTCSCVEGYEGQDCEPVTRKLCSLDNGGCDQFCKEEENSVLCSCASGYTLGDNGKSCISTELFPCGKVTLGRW
Sequence (O19045 233-490 limits assumed): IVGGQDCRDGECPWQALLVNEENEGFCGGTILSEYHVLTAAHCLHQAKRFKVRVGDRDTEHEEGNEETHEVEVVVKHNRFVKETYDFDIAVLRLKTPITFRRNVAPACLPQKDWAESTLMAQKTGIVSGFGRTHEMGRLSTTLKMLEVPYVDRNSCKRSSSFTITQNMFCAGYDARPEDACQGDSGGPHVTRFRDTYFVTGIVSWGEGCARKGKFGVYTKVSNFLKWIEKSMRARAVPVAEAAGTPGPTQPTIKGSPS
Scale: pKi equals -log10([C]), with [C] in mol/L.

Problem: What does the record list as pKi for COc1ccc(-n2nc(C(N)=O)c3c2C(=O)N(c2ccc(N(C)C(C)=O)cc2)CC3)cc1 ?
Result: 8.59

Problem: What does the record list as pKi for COc1ccc(-n2nc(C(N)=O)c3c2C(=O)N(c2ccc(N4CCCCC4=O)cc2)CC3)cc1 [APIXABAN] ?
Result: 9.77

---

I'd be grateful if you could share measured half-life for these entries.
assay: Half life in dog at 0.2 mg/kg, po; type: ADME, organism-based, Canis lupus familiaris; parameters: dose 0.2 mg/kg, route oral; settings: in vivo
Reply with a number, then the unit it belongs to.

Problem: What does the record list as half-life for CN(C)Cc1nccn1-c1ccc(NC(=O)c2cc(C(F)(F)F)nn2-c2ccc3onc(N)c3c2)c(F)c1 [RAZAXABAN] ?
Result: 5.3 h

Problem: What does the record list as half-life for COc1ccc(-n2nc(C(N)=O)c3c2C(=O)N(c2ccc(N(C)C(C)=O)cc2)CC3)cc1 ?
Result: 0.7 h

Problem: What does the record list as half-life for COc1ccc(-n2nc(C(N)=O)c3c2C(=O)N(c2ccc(-c4ccccc4CN4CCC(O)CC4)cc2)CC3)cc1 ?
Result: 4.3 h

Problem: What does the record list as half-life for COc1ccc(-n2nc(C(N)=O)c3c2C(=O)N(c2ccc(N4CCCCC4=O)cc2)CC3)cc1 [APIXABAN] ?
Result: 5.8 h
